Reported values of Emax for individual entries
Target: Human TREM2 (Homo sapiens, UniProt Q9NZC2)
Construct: expressed in transfected cells
Sequence (Q9NZC2 19-230): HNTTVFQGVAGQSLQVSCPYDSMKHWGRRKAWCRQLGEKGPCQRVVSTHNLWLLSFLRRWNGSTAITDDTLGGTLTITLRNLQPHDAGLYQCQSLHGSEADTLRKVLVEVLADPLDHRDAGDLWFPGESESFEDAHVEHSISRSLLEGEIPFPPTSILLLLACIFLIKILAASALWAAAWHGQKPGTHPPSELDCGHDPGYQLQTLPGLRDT
Sequence (O43914 22-113 partner): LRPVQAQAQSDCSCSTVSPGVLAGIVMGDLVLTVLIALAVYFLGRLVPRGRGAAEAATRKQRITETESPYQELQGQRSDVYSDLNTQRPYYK
Assay: Human TREM2 activity: cellular phosphorylation of Syk (AlphaLISA SureFire Ultra p-SYK) in HEK293/DAP12+TREM2 stable cell line
Type: cell-based
Conditions: HEK293; maximal response relative to reference agonist example 1B (remaining examples); read-out: Emax

Here is how some molecules turned out for Emax.
Cn1cc([C@H]2CN(c3nc(-c4cc(F)c(F)cc4F)c4nc(C(F)(F)F)n(C)c(=O)c4n3)CC3(CC3)O2)cn1 (single isomer, unassigned) [Example 162B] ... < 75%
Cc1nc2c(-c3ccc(C(F)(F)F)nc3)nc(N3C[C@@H](c4cnn(C)c4)OC(C)(C)C3)nc2c(=O)n1C (single isomer, unassigned) [Example 102A] ... 75 to 110%

// next entry
**Q:** Please report Emax for the following molecule: Cc1cc([C@@H]2CN(c3cc4c(=O)n(C)c(C)nc4c(-c4cc(F)c(F)cc4F)n3)CC(C)(C)O2)ccn1 (single isomer, unassigned) [Example 160A]
**A:** 75 to 110%

###

Reported values of pEC50 for individual entries
Target: Human TREM2 (Homo sapiens)
Construct: expressed in transfected cells
Test: Human TREM2 activity: cellular phosphorylation of Syk (AlphaLISA SureFire Ultra p-SYK) in HEK293/DAP12+TREM2 stable cell line
Assay type: cell-based
Details: phospho-Syk AlphaLISA signal, HEK293/DAP12+TREM2 cells; concentration giving 50% of maximal response; read-out: EC50
pEC50: −log10 of the molar value.

Here is how some compounds turned out for pEC50.
Cc1cc([C@H]2CN(c3cc4c(=O)n(C)c(C)nc4c(-c4ccc(C(F)F)nc4)n3)C[C@@H](C)O2)ccn1 (single isomer, unassigned) [Example 192B] ... 8.00 to 9.00
Cn1c(C(F)(F)F)nc2c(-c3cc(F)c(F)cc3F)nc([C@H]3CCO[C@@H](c4cnn(C5CC5)c4)C3)nc2c1=O (single isomer, unassigned) [Example 186B] ... 6.00 to 7.00
Cc1nc2c(-c3ccc(Cl)cc3F)nc(N3CCOC4(CCc5ccccc54)C3)nc2c(=O)n1C (stereo not drawn) [Example 85] ... < 6.00

**Q:** Please report pEC50 for the following compound: Cc1cc([C@@H]2CN(c3nc(-c4ccc(C(F)(F)F)nc4)c4nc(C)n(C)c(=O)c4n3)CCO2)ccn1 (single isomer, unassigned) [Example 22A]
**A:** 6.00 to 7.00

**Q:** Please report pEC50 for the following compound: Cc1nc2c(-c3ccc(Cl)cc3F)nc(N3CCOC(c4cn[nH]c4)C3)nc2c(=O)n1C (stereo not drawn) [Example 39]
**A:** 7.00 to 8.00

**Q:** Please report pEC50 for the following compound: Cc1nc2c(-c3ccc(Cl)cc3F)cc([C@H]3CCO[C@@H](c4cnn(C5CC5)c4)C3)cc2c(=O)n1C (single isomer, unassigned) [Example 119B]
**A:** 8.00 to 9.00

**Q:** Please report pEC50 for the following compound: Cc1nc2c(-c3ccc(C(F)(F)F)nc3)nc(N3CCO[C@@H](c4cnn(C)c4)C3)nc2c(=O)n1C (single isomer, unassigned) [Example 28B]
**A:** 7.00 to 8.00

**Q:** Please report pEC50 for the following compound: Cc1cc([C@@H]2CN(c3nc(-c4ccc(F)cc4F)c4nc(C)n(C)c(=O)c4n3)CCO2)ccn1 (single isomer, unassigned) [Example 122A]
**A:** 8.00 to 9.00

**Q:** Please report pEC50 for the following compound: Cc1nc2c(-c3ccc(Cl)cc3F)nc([C@@H]3C[C@H]3c3cnn(C)c3)cc2c(=O)n1C (single isomer, unassigned) [Example 148B]
**A:** < 6.00
